- System: Fibroblast
- PROTOCOL: Multiplex assay against human fibroblast
- Assay type: toxicity, cell-based
- RECORDED_CONDITIONS: 24 h, 1 µM, compound concentration 1 uM, replicate 1
Decide using Population Membrane Permeable-Phenotype (%): a value greater than or equal to 7% is yes (1), a smaller one is no (0).

Would you please look over these solved cases?
# COMPOUND, ASSAY_SYSTEM, GROUP
measured = [
    ("COc1cc(N2CCC(N(C)C)CC2)ccc1Nc1ncc(Cl)c(Nc2ccccc2P(C)(C)=O)n1", "Fibroblast", "no (0)"),
    ("CC(C)N1CCC(C)(C)c2cc(C#Cc3ccc(C(=O)O)cc3)ccc21", "Fibroblast", "yes (1)"),
    ("Cc1cn(-c2cc(NC(=O)c3ccc4c(c3)CN(c3cncnc3)C[C@@H]4C)cc(C(F)(F)F)c2)cn1", "Fibroblast", "yes (1)"),
    ("CNc1oc(-c2cccc3ccccc23)nc1C#N", "Fibroblast", "no (0)"),
    ("Cc1cc2c(cc1N1C(=O)c3cccc4c(CCCO)ccc(c34)C1=O)n(C)c(=O)n2C", "Fibroblast", "yes (1)"),
]

Check if Population Membrane Permeable-Phenotype (%) >= 7% (inclusive). Item: CN(C)C/C=C/C(=O)Nc1cc2c(Nc3ccc(F)c(Cl)c3)ncnc2cc1O[C@H]1CCOC1.O=C(O)/C=C\C(=O)O.O=C(O)/C=C\C(=O)O [AFATINIB DIMALEATE]
no (0)

Now this one: CC(C)Oc1ccc(C(=O)N[C@H](CNC(=O)CN(C)C)Cc2ccc(-c3cn4cccc([C@H](C)O)c4n3)cc2)cc1Cl [GSK-923295A]
no (0)

Now this one: Cl.Cl.Nc1ncnc2c1c(-c1cccc(OCc3ccccc3)c1)cn2[C@H]1C[C@@H](CN2CCC2)C1
yes (1)

Now this one: CCC(=O)O[C@]1(C(=O)SCF)[C@H](C)C[C@H]2[C@@H]3C[C@H](F)C4=CC(=O)C=C[C@]4(C)[C@@]3(F)[C@@H](O)C[C@@]21C [FLUTICASONE PROPIONATE]
yes (1)
